Measured IC50 by item
Molecular target: Gamma-secretase
Assay: Modulation of gamma-secretase activity in human H4 cells expressing APP695 assessed as increase in amyloid beta42 production after 20 to 24 hrs by liquid phase electrochemiluminescence assay
Type: cell-based

# compound, subjectOfTest, unitText, limitSign, IC50
data = [
    ("CCCCCCCCn1c2ccccc2c2cc(C=O)c(OCC(=O)O)cc21", "Gamma-secretase", "µM", "=", 32),
    ("CCCCCCCCn1c2ccccc2c2ccc(OC3=C(O)CNC3=O)cc21", "Gamma-secretase", "µM", "=", 28),
    ("CCCCCCCCn1c2ccccc2c2ccc(OCCNC=O)cc21", "Gamma-secretase", "µM", ">", 80),
    ("CCCCCCCCn1c2ccccc2c2ccc(OCC(=O)OCC)cc21", "Gamma-secretase", "µM", "=", 31),
    ("CCCCCCCCn1c2ccccc2c2ccc(OCCS(=O)(=O)O)cc21", "Gamma-secretase", "µM", ">", 80),
    ("CCCCCCCCn1c2ccccc2c2ccc(OCCO)cc21", "Gamma-secretase", "µM", ">", 40),
    ("CCCCCCCCn1c2ccccc2c2ccc(OCc3nn[nH]n3)cc21", "Gamma-secretase", "µM", "=", 113),
    ("CCCCCCCCn1c2ccccc2c2ccc(OCC#N)cc21", "Gamma-secretase", "µM", "=", 252),
    ("CCCCCCCCn1c2ccccc2c2cc(C=O)c(OCC(=O)OC)cc21", "Gamma-secretase", "µM", "=", 89),
    ("CCCCCCCCn1c2ccccc2c2ccc(OC3=C(O)C(Cc4ccccc4)N(Cc4ccc5c(c4)OCO5)C3=O)cc21 (centres undefined)", "Gamma-secretase", "µM", "=", 24),
    ("CCCCCCCCn1c2ccccc2c2ccc(OCCN(C(=O)C(F)(F)F)C(=O)C(F)(F)F)cc21", "Gamma-secretase", "µM", ">", 80),
    ("CCCCCCCCn1c2ccccc2c2ccc(OCCC(=O)O)cc21", "Gamma-secretase", "µM", ">", 80),
    ("CCCCCCCCn1c2ccccc2c2ccc(OCC(=O)OC)cc21", "Gamma-secretase", "µM", "=", 27),
    ("CCCCCCCCn1c2ccc(Cl)cc2c2ccc(C(C)C(=O)OCc3ccccc3)cc21 (centres undefined)", "Gamma-secretase", "µM", ">", 80),
    ("CCCCCCCCn1c2ccccc2c2ccc(OCC(N)=O)cc21", "Gamma-secretase", "µM", "=", 104),
    ("CCCCCCCCn1c2ccc(Cl)cc2c2ccc(C(C)C(=O)O)cc21 (centres undefined)", "Gamma-secretase", "µM", "=", 6.9),
    ("CCCCCCCCn1c2ccccc2c2ccc(OCC(=O)OCC(C)C)cc21", "Gamma-secretase", "µM", ">", 80),
    ("CCCCCCCCn1c2ccccc2c2ccc(O)cc21", "Gamma-secretase", "µM", ">", 80),
    ("CCCCCCCCn1c2ccccc2c2ccc(OC(C)(C)C(=O)O)cc21", "Gamma-secretase", "µM", ">", 40),
    ("CCCCCCCCn1c2ccccc2c2ccc(Oc3ccccc3C(=O)O)cc21", "Gamma-secretase", "µM", "=", 38),
    ("CCCCCCCCn1c2ccccc2c2cc(CO)c(OCCO)cc21", "Gamma-secretase", "µM", "=", 80),
    ("CCCCCCCCn1c2ccccc2c2cc(CCC(=O)O)c(OCC(=O)O)cc21", "Gamma-secretase", "µM", ">", 80),
    ("CCCCCCCCn1c2ccccc2c2ccc(OCC(=O)O)cc21", "Gamma-secretase", "µM", "=", 19),
    ("CCCCCCCCn1c2ccccc2c2ccc(OC3=C(O)COC3=O)cc21", "Gamma-secretase", "µM", "=", 37),
]
